The following compounds are listed with their measured rNPFF1 IA values.
Target: rat NPFF1 receptor (Rattus norvegicus, UniProt Q9EP86)
Construct: expressed in transfected cells; host or cells: not given
Sequence (Q9EP86 whole entry): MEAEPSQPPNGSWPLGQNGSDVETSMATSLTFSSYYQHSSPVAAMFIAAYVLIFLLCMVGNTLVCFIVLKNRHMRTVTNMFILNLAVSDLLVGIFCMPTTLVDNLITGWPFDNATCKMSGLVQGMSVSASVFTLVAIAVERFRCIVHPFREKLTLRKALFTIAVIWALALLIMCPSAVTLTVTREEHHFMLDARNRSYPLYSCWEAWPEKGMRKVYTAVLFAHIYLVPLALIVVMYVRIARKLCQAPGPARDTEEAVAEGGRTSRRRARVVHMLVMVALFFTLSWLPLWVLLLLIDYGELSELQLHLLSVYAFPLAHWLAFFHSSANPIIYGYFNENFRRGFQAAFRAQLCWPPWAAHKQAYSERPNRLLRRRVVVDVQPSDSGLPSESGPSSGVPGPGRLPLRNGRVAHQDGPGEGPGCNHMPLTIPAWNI
Assay: Functional assay (agonist potency, intrinsic activity) at cloned rat NPFF1 receptor
Assay type: cell-based
Conditions: Table 7, intrinsic activity
Please reply with the bare figure in % NPFF and do not write the unit itself.

Item CCCCCc1ccc2nc(NC(=N)N)cc(C)c2c1 [Compound 5002A] has what recorded rNPFF1 IA? 41

More entries:
Item CCCCc1ccc2nc(NC(=N)N)nc(C)c2c1 [Compound 2004A] has what recorded rNPFF1 IA? 40
